Target: T1, Ecm16 (Streptomyces lasalocidi, UniProt Q0X0A9 1-792)
T1 sequence: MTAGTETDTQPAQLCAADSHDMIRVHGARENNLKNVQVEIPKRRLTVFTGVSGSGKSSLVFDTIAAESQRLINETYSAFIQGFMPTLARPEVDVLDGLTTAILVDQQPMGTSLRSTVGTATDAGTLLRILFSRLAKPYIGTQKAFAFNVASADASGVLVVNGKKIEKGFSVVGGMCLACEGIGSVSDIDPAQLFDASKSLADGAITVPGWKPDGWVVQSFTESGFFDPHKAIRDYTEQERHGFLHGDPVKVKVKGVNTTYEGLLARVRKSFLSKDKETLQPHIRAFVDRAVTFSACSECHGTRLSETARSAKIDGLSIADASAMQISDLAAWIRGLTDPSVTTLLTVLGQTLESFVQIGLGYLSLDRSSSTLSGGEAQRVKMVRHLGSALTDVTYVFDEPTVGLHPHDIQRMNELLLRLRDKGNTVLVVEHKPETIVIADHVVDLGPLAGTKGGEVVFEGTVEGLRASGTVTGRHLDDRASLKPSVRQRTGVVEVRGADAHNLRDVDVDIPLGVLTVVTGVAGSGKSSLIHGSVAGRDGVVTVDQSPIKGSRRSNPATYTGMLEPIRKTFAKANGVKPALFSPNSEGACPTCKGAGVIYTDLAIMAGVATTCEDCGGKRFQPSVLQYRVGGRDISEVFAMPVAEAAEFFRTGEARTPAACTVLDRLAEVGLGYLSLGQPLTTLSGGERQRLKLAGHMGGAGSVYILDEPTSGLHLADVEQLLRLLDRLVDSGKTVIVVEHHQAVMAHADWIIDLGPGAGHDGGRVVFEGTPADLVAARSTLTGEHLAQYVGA
Experiment: EMSA
assay.endpoint: pKd
Remember, pKd is on a log scale: it is -log10 of the molar concentration.

Write down pKd measured for item 32-mer dsDNA (dsDNA) DNA 1: AGTGATCAGTGGTTACGTAACCACTGATCACT DNA 2: AGTGATCAGTGGTTACGTAACCACTGATCACT
7.69
